Value source: PubChem BioAssay

assay_procedure: compound binding in COS7 lysate, probe aLAP1, primary screen, cell lysate, small-molecule microarray (AID 1124);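 also: lysate comes from COS7 cells expressing LAP1 and is applied at 0.3 µg/mL; score merges spot fluorescence near 667 nm with signal-to-noise over triplicate slides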
condition_info: probe aLAP1, fluorescence, higher = more signal
Provide the reported composite z-score of each item.
Give bare numbers.

>  <compound>
C=CCOC(=O)[C@H]1[C@@H]2C(=O)O[C@@H](c3ccccc3)[C@@H](c3ccccc3)N2[C@@H](c2ccc(OCCOC(=O)[C@H]3C[C@H]4C(=O)NCC(=O)N4[C@H]3c3cccc(OCCO)c3)cc2)[C@]12C(=O)Nc1ccc(I)cc12

>  <value>
0.692

$$$$
>  <compound>
COC(=O)c1c2oc(c1C(=O)OC)C(=O)N[C@H](Cc1ccccc1)Cn1cc(nn1)C1(CCCCC1)NC(=O)N[C@H](CO)CC2

>  <value>
0.474

$$$$
>  <compound>
CC(C)(C)OC(=O)CC[C@@]1(C(=O)N2CCOCC2)N=C(c2ccc(OCCCO)cc2)O[C@@H]1c1ccccc1CN=[N+]=[N-]

>  <value>
0.86

$$$$
>  <compound>
Cc1ccc(S(=O)(=O)N2[C@@H](c3ccccc3)C(C(=O)O)=C[C@H]2C(C)(C)C)cc1

>  <value>
0.827

$$$$
>  <compound>
COCCOC(=O)N1C(=O)[C@@]2(c3cc(C#CCNC(N)=O)ccc31)[C@H](C(=O)N1CCN(c3ncccn3)CC1)[C@H]1C(=O)O[C@H](c3ccccc3)[C@H](c3ccccc3)N1[C@@H]2c1ccc(O)cc1

>  <value>
0.555

$$$$

Moving on to another compound below.
In: If you can, please state the reported composite z-score value of O=C1NC(=O)C2C1C=CC(C(O)C(c1ccccc1)c1ccccc1)N2Nc1ccccn1 (stereo unspecified) .
Out: 0.754
